The reported numbers originate from patent US20230115945A1.

target: FGFR1 (Homo sapiens); construct: made in house; host or cells: E. coli host derived from BL21, infected with T7 phage; test: Kinase binding assay (Kd), FGFR1; conditions: 11-point 3-fold dilution, qPCR readout
Sequence (P11362 22-822): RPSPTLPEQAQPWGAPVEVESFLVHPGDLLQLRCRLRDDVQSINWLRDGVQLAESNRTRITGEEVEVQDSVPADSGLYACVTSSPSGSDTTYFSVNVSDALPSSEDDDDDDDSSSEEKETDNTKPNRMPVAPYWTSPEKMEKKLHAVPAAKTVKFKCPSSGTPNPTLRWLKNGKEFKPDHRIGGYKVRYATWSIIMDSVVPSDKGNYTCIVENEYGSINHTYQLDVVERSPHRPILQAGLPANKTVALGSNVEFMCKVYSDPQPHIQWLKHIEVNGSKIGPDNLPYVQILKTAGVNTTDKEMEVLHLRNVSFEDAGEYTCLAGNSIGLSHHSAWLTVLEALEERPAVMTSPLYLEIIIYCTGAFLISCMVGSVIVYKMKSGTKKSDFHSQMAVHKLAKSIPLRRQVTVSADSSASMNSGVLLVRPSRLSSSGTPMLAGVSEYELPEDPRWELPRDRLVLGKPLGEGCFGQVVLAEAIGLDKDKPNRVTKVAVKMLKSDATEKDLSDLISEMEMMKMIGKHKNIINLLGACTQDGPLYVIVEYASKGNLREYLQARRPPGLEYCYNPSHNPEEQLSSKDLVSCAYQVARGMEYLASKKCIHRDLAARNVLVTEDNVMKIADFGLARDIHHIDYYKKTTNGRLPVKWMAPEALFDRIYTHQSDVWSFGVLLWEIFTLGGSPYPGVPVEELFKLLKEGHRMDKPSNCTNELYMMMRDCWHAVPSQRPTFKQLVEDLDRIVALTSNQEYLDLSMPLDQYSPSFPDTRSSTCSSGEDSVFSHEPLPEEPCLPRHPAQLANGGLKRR
Exercise: state measured log10 of Kd for each of the compounds provided.
All values: base-10 log of Kd in nM.

Some solved entries appear below for comparison.
[[record]]
compound = "C=CC(=O)Nc1ccc2c(-c3nc(Nc4ccc(S(C)(=N)=O)cc4)ncc3Cl)c[nH]c2c1 (centres unmarked)"
measured_on = "FGFR1 (Homo sapiens)"
measured_quantity = "log10 of Kd"
number = 1.88

[[record]]
compound = "CS(C)(=O)=Nc1ccc(Nc2ncc(Cl)c(-c3c[nH]c4ccccc34)n2)cc1"
measured_on = "FGFR1 (Homo sapiens)"
measured_quantity = "log10 of Kd"
number = 1.28

[[record]]
compound = "CN=S(C)(=O)c1ccc(Nc2ncc(Cl)c(-c3c[nH]c4ccccc34)n2)c(OC)c1 (centres unmarked)"
measured_on = "FGFR1 (Homo sapiens)"
measured_quantity = "log10 of Kd"
number = 2.70

[[record]]
compound = "CN1CCS(=O)(=Nc2ccc(Nc3ncc(Cl)c(-c4c[nH]c5ccccc45)n3)cc2)CC1"
measured_on = "FGFR1 (Homo sapiens)"
measured_quantity = "log10 of Kd"
number = 1.11


Moving on to another compound below.
## Input So what does the record say about log10 of Kd for C=CC(=O)Nc1ccc2c(ccn2-c2nc(Nc3ccc(N=S(C)(C)=O)c(F)c3)ncc2Cl)c1C ?
## Output 2.59
